The values you see were collected from the RNAGym collection of RNA variant scans (doi:10.7554/elife.80360).

B1: Hairpin Ribozyme (parent)
chain: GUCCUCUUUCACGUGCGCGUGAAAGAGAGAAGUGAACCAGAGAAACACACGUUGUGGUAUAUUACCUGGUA

# Variants of: B1
# procedure-text: self-cleavage, relative activity (ratio to wild type); higher = more cleavage; co-transcriptional
Outcome: 1 for self-cleavage of at least 0.4; 0 for anything lower.

Solved entries:
[
  {
    "sequence-text": "GUCCUCUUUCGCGUGCGCGUGAAAGAGAGAAGUGAACCAGAGAAACUCACGUUGUGGUAUAUUACCUGGUA [A11G A47U]",
    "discrete-label": 0
  },
  {
    "sequence-text": "GUCCUCUUUCACGUGCGCGUGAAAGAGAUAAGUGAACCGGAGAAACACACGUUGUGGUAUAUUACCUGGUA [G29U A39G]",
    "discrete-label": 0
  },
  {
    "sequence-text": "GUCCUCUUUCACGUGCGCGGGCAAGAGAGAAGUGAACCAGAGAAACACACGUUGUGGUAUAUUACCUGGUA [U20G A22C]",
    "discrete-label": 1
  },
  {
    "sequence-text": "GUCCUCUUUCACGUGCGCGUGAAAGAGAGACGUGACCCAGAGAAACACACGUUGUGGUAUAUUACCUGGUA [A31C A36C]",
    "discrete-label": 0
  },
  {
    "sequence-text": "GUCCUCCUUCACGUGCGCGUGAAAGAGAGAAGUGAACCAGGGAAACACACGUUGUGGUAUAUUACCUGGUA [U7C A41G]",
    "discrete-label": 1
  }
]

(Q) Identify whether the reported self-cleavage of the following variant is 0.4 or greater: GUCUUCUUUCACGUGCGCGUGAAAGAGAGAAGUGAACCAGAAAAACACACGUUGUGGUAUAUUACCUGGUA [C4U G42A]
(A) 0

(Q) Quick check: does GUCCUCUUUCACGUGCGCGUGAAAGAGAGAAGUGAACCAGAGAAACACACGUUUUUGUAUAUUACCUGGUA [G54U G56U] have self-cleavage greater than or equal to 0.4?
(A) 0

(Q) Can GGCCUCUUUCACGUGCGCGUGAAAGAGAGAAGUGAACCAGAGAAACACACGUUGUGGUAUAUAACCUGGUA [U2G U63A] be said to have self-cleavage at or above 0.4?
(A) 0

(Q) Answer whether self-cleavage of GUCCUCUUUCACGUGCGCGUGCAAGAGAGAAGUGAACCAGAGAAACACACGUUGUGGUCUAUUACCUGGUA [A22C A59C] is greater than or equal to 0.4.
(A) 0

(Q) Form field: self-cleavage at least 0.4? Entry: GUCCUCUUUUACGUGCGCGUGAAAGAGAGAAGUGAACCAGAGAAACACACGUUGUGGUACAUUACCUGGUA [C10U U60C]
(A) 1

(Q) I'd appreciate it if you could say whether GUCCUCUUUCACGUGCGCGUGAAAGAGAGGAGUGAACCAGAGAAACACACGUUGUGGCAUAUUACCUGGUA [A30G U58C] has self-cleavage at least equal to 0.4.
(A) 0

(Q) Say whether GUCCUCUGUCACGUGCGCAUGAAAGAGAGAAGUGAACCAGAGAAACACACGUUGUGGUAUAUUACCUGGUA [U8G G19A] shows self-cleavage of 0.4 or more.
(A) 1

(Q) Decide: is the reported value of self-cleavage for GUGCUCUUUCACGUGCGCGUGAAAGAGAGAAGUGAACCAUAGAAACACACGUUGUGGUAUAUUACCUGGUA [C3G G40U] equal to or greater than 0.4?
(A) 0

(Q) Determine whether measured self-cleavage meets or exceeds 0.4 for GUCCUCUUUCACGUGCGCGUGAAAGCGAGAAGUGAACCAGAGAAACACACUUUGUGGUAUAUUACCUGGUA [A26C G51U]
(A) 1

(Q) # bool: self-cleavage of GUACUCUUUCACGUGCGCGUGAAAGAGAGAAAUGAACCAGAGAAACACACGUUGUGGUAUAUUACCUGGUA [C3A G32A] >= 0.4
(A) 0
